system: UACC-62; test: NCI tumour cell line growth inhibition, 48 h
The source made the active and inactive calls. Cut-off read from the data, not from the text of the source: active = GI50 up to about 1.1 µM and inactive = higher.
Pick from 1 = active, -1 = inactive when you respond.

MOLECULE: CCOc1ccc2nc(NC(=O)C(=O)C(C(=O)c3ccccc3F)C3OC(=O)c4ccccc43)sc2c1 (stereo not given)
SYSTEM: UACC-62
DISCRETE_LABEL: -1
//
MOLECULE: Cc1ccccc1C(=O)N1CCN(C(=O)c2ccccc2C)CC1
SYSTEM: UACC-62
DISCRETE_LABEL: -1

Outcome logged for COc1ccccc1C1c2cc3c(cc2OC(N2CCCC2)C1C)OCO3 (stereo not given) in this assay:
-1

Outcome logged for COC1/C=C\C=C(/C)C(=O)NC2=CC(=O)C(N)=C(CC(C)CC(OC)C(O)C(C)C=C(C)C1OC(N)=O)C2=O (stereo not given) in this assay:
1

Outcome logged for O=c1cc(NNc2ccccc2F)[nH]c(=O)[nH]1 in this assay:
-1

###

test system: HT-29; experiment: NCI tumour cell line growth inhibition, 48 h
Active and inactive are the calls of the source. Rule as the data show it: active = GI50 up to about 1.1 µM and inactive = higher.
Pick from true = active, false = inactive when you respond.

Example entries begin here.
COMPOUND: CC(=O)OC/C=C(/CCl)CCC(Br)C(C)(C)Br.CC(=O)OC/C=C(\CCl)CCC(Br)C(C)(C)Br (centres undefined)
SYSTEM: HT-29
DISCRETE_LABEL: false

COMPOUND: CC12Cc3cc4c(cc3C1(c1ccc([N+](=O)[O-])cc1)OCCO2)OCO4 (centres undefined)
SYSTEM: HT-29
DISCRETE_LABEL: false

COMPOUND: COC(=O)[C@H](C)[C@@H]1CC[C@](C)(CCC2=C(C)CCCC2(C)C)OO1
SYSTEM: HT-29
DISCRETE_LABEL: false

COMPOUND: O=c1[nH]c(=O)n([C@@H]2O[C@H](CO)[C@@H](O)[C@@H]2F)cc1I [FIALURIDINE]
SYSTEM: HT-29
DISCRETE_LABEL: false

COMPOUND: O=c1c2ccccc2nc(N/N=C/c2ccccc2O)n1-c1ccccc1
SYSTEM: HT-29
DISCRETE_LABEL: false

Outcome logged for CN(NC(=O)c1cccs1)C1=NCCN1 in this assay:
false

Outcome logged for COc1ccc(N2C(=O)c3cccnc3S2(=O)=O)cc1 in this assay:
false

Outcome logged for COc1ccccc1N1C(=O)CSC1c1c[nH]c2ccccc12 (centres undefined) in this assay:
false

Outcome logged for O=C(OCc1ccccc1)N(CCCCN(CCCNCc1ccccc1)C(=O)OCc1ccccc1)CCCNCc1ccccc1 in this assay:
true

Outcome logged for Nc1nc(N)c(CCCCc2ccccc2)c(/C=C/c2ccc([N+](=O)[O-])cc2)n1 in this assay:
true

Outcome logged for O=C(O)c1ccc(Nc2nc3ccc(C(F)(F)F)cc3nc2C(=O)O)cc1 in this assay:
false

Outcome logged for C=CC(C)(O)/C=C/C=C(\C)C(CC1OC1(C)C)OC(=O)/C(C)=C\C (centres undefined) in this assay:
false

Outcome logged for CCCCC(=O)OC[n+]1cccc(-c2c(COC(=O)NC(C)C)c(COC(=O)NC(C)C)c3n2CCC3)c1 in this assay:
false

Outcome logged for Nc1ccc(S(=O)(=O)Nc2ccc(Nc3c4ccccc4nc4ccccc34)cc2)cc1 in this assay:
true

###

system: OVCAR-5; experiment: NCI tumour cell line growth inhibition, 48 h
Calls of active or inactive are those of the source. No stated cut-off is given here; in the data, active = GI50 up to about 1.1 µM and inactive = higher.
MEASURED_QUANTITY: GI50

COMPOUND: C[C@@]1(O)C2CC3CC1(c1ccccc1)CC(/C3=N/O)/C2=N\O (stereo partly specified)
SYSTEM: OVCAR-5
RESULT: > 100 µM (inactive)
--
COMPOUND: CN(C)/N=C1/CCC(C(F)(F)F)(C(F)(F)F)O1
SYSTEM: OVCAR-5
RESULT: 58.1 µM (inactive)
--
COMPOUND: c1ccc(CN2CCC(CNc3ncnc4ccccc34)C2)cc1 (stereo unspecified)
SYSTEM: OVCAR-5
RESULT: > 100 µM (inactive)
--
COMPOUND: CCOC(=O)/C(C(=S)NC)=C(/N)N1CCCC1
SYSTEM: OVCAR-5
RESULT: > 100 µM (inactive)
--
COMPOUND: COC(=O)C#Cc1ccc([N+](=O)[O-])cc1
SYSTEM: OVCAR-5
RESULT: 2.16 µM (inactive)

Looking for the measured GI50 of O=Cc1c(O)c(C(=O)Nc2ccc3[nH]c(=O)[nH]c3c2)cc2ccccc12 , can you help?
> 100 µM (inactive)

###

tested on: HT-29; experiment: NCI tumour cell line growth inhibition, 48 h
Calls of active or inactive are those of the source. No stated cut-off is given here; in the data, active = GI50 up to about 1.1 µM and inactive = higher.
Listing of recorded GI50 by entry.

COMPOUND: COc1cc(/C=C2\N=C(c3ccccc3)N(c3nc4c(OC)ccc(OC)c4s3)C2=O)cc(OC)c1OC
GI50: > 100 µM (inactive)

COMPOUND: O=c1c(Cl)c(Cl)c(=O)c2sc3cc(Cl)ccc3[nH]c1=2
GI50: > 100 µM (inactive)

COMPOUND: O=S1(=O)c2cnccc2N=C(NCc2cccc3ccccc23)N1c1ccccc1
GI50: > 100 µM (inactive)

COMPOUND: Cc1ccccc1C(=O)Oc1ccc(OCc2ccccc2)cc1
GI50: 63.8 µM (inactive)

COMPOUND: Nc1ccc([C@H]2C(=O)N[C@H]3CCC[C@H]32)cc1
GI50: > 100 µM (inactive)

COMPOUND: COc1ccc2c3c([nH]c2c1[N+](=O)[O-])C(C)N(Cc1ccccc1)CC3 (stereo not given)
GI50: 2.92 µM (inactive)

Looking for the measured GI50 of C=CCNC(=O)CN(CC(=O)OC)C1CCCCC1N(CC(=O)OC)CC(=O)OC (stereo not given) , can you help?
> 100 µM (inactive)

Looking for the measured GI50 of COc1ccc(CC(=O)NCCc2ccc(OC)c(OC)c2)cc1Br , can you help?
> 100 µM (inactive)

Looking for the measured GI50 of COc1cc(S(=O)(=O)Nc2ccc(-c3csc(/N=C\c4cccs4)n3)cc2)ccc1Cl , can you help?
57.1 µM (inactive)

Looking for the measured GI50 of CCOC(=O)c1cccc(=O)c(C(=O)OCC)c1 , can you help?
58.2 µM (inactive)

###

system: CCRF-CEM; assay: NCI tumour cell line growth inhibition, 48 h
Activity calls are given as the source filed them. Rule as the data show it: active = GI50 up to about 1.1 µM and inactive = higher.
Pick from active, inactive when you respond.

Example entries begin here.
COMPOUND: O=C1C(Cl)N(c2ccccc2Cl)C1c1c[nH]c2ccccc12 (centres undefined)
DISCRETE_LABEL: inactive

COMPOUND: CC(NC1=NCCO1)c1cccs1 (centres undefined)
DISCRETE_LABEL: inactive

COMPOUND: COc1cc2ccnc(C#N)c2cc1OCc1ccccc1
DISCRETE_LABEL: inactive

Outcome logged for COc1c(C)cc2c(c1O)C1NC(C2)[C@H](O)N2C3COC(=O)[C@@]4(CS[C@@H](c5c(OC(C)=O)c(C)c6c(c53)OCO6)C12)NCCC1=C4NC2C=CC=CC12 (some centres undefined) in this assay:
active

Outcome logged for COc1ccc2c3c1OC1c4[nH]c5ccccc5c4CC4(O)C(C2)N(C)CCC314 (centres undefined) in this assay:
inactive

Outcome logged for C=C(/C=C/C=C(\C)CCC=C(C)C)[C@@H]1CC[C@]2([C@H](CCCO)/C(=C(/C)C=O)CC[C@]2(C)O)[C@@H]1O in this assay:
inactive

Outcome logged for O=C(c1ccccc1)c1nc2c(Cl)ccc(Cl)c2cc1C(Br)Br in this assay:
active

Outcome logged for Cc1cccc(NC2=NC(=O)C(CC(=O)Nc3cccc(C)c3C)S2)c1 (centres undefined) in this assay:
inactive

Outcome logged for CC1(C(=O)O)C[C@](C)(C(=O)OCc2ccccc2)C[C@](C)(C(=O)OCc2ccccc2)C1 (some centres undefined) in this assay:
inactive

###

system: 786-0; assay: NCI tumour cell line growth inhibition, 48 h
Activity calls are given as the source filed them. Rule as the data show it: active = GI50 up to about 1.1 µM and inactive = higher.
MEASURED_QUANTITY: GI50

Solved cases below.
COMPOUND: Cc1c(C(=O)N2CCN(c3ccc([N+](=O)[O-])cc3)CC2)[n+]([O-])c2cc(Cl)c(Cl)cc2[n+]1[O-]
GI50: 16.5 µM (inactive)

COMPOUND: CCOC(=O)C12C(=O)CCN1CCc1ccccc1C2C (centres undefined)
GI50: > 100 µM (inactive)

COMPOUND: CN(Cc1cnc2nc(N)nc(N)c2n1)c1ccc(C(=O)NC23CC4CC(CC(C4)C2)C3)cc1
GI50: 7.24 µM (inactive)

Attention now turns to another entry.
Looking for the measured GI50 of Cc1ccc(C2SC(=N)Nc3c2c(C)nn3C(=O)c2ccc(Cl)cc2)cc1 (centres undefined) , can you help?
> 10 µM (inactive)

###

system: MDA-MB-231; assay: NCI tumour cell line growth inhibition, 48 h
Activity calls are given as the source filed them. Cut-off read from the data, not from the text of the source: active = GI50 up to about 1.1 µM and inactive = higher. Peptide text beside a SMILES is read from it.
Pick from 1 (yes) (active), 0 (no) (inactive) when you respond.

Example entries begin here.
COMPOUND: N#Cc1c(N)n(-c2cccc(C(=O)O)c2)c(=O)c2cc([N+](=O)[O-])ccc12
DISCRETE_LABEL: 0 (no)

COMPOUND: COC1/C=C/C(C)C(O)CC(O)/C=C/C(C)C(C(C)C(OC)C(C)CCC(=O)C(C)C(C/C=C/N(C)C=O)OC)OC(=O)/C=C/C=C(\C)CC(OC)CC2=CC(=O)O[C@@H](C(C)C(OC)C1)[C@H]2O (some centres not stated)
DISCRETE_LABEL: 1 (yes)

COMPOUND: O=C1/C(=C\c2cccc(Oc3ccccc3)c2)SC(c2ccccc2)N1c1ccccc1 (configuration not stated)
DISCRETE_LABEL: 0 (no)

COMPOUND: CC(C)CC(NC(=O)C(CC(C)C)NC(=O)C(Cc1c[nH]cn1)NC(=O)C(C)NC(=O)C(NC(=O)C(C)NC(=O)C(Cc1c[nH]c2ccccc12)NC(=O)C(CCC(=O)O)NC(=O)C(N)Cc1ccccc1)C(C)C)C(N)=O (configuration not stated) (H-FEWAVAHLL-NH2; configuration not given here)
DISCRETE_LABEL: 0 (no)

COMPOUND: CN(Cc1cnc2nc(N)nc(N)c2n1)c1ccc(C(=O)NC23CC4CC(CC(C4)C2)C3)cc1
DISCRETE_LABEL: 0 (no)

Outcome logged for CN(C(=O)Cc1ccc(Cl)c(Cl)c1)[C@H]1CCCC[C@@H]1[N+]1(C)CCCC1 in this assay:
0 (no)

Outcome logged for O=C(O)C1OC(n2cc(F)c(=O)[nH]c2=O)CC1O (configuration not stated) in this assay:
0 (no)
